// provenance: patent US20220162331A1

system_under_test: T1, human CD73 on Calu6 cells (human, UniProt P21589 27-549)
T1 sequence (looked up): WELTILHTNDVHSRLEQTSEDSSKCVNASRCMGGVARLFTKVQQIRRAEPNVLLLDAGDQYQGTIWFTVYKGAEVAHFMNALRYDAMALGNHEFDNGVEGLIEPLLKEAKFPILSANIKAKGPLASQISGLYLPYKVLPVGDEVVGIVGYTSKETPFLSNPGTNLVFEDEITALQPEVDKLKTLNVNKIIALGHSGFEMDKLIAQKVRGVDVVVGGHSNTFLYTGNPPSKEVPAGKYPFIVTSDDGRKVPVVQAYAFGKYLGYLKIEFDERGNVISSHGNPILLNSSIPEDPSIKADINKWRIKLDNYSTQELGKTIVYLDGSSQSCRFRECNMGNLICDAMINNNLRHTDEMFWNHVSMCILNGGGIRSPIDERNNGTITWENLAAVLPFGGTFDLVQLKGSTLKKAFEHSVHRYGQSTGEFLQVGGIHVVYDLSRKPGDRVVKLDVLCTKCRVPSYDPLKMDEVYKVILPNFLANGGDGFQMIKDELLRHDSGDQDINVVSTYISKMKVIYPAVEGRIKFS
method: cell-based or functional assay
Known CD73 endocytosis ratio %, 480 minutes of a selection of binders
Expressed in %, but write only the number.

* CD73 antibody 2D4 (antibody, V domains shown, also called Clone 2D4) VH: EVKLVESGGGLVQPGGSLKLSCATSGFTFSDYYMYWVRQTPEKRLEWVAYISNVGGSTYYPDTVKGRFTISRDNAKNTLYLQMSRLKSEDTAIYYCARGDGYYGYYFDVWGAGTTVTVSS VL: QIVLTQSPAIMSASPGEKVTMTCSASSSVSYMHWYQQKSGTSPKRWIYDTSKLASGVPARFSGSGSGTSYSLTISSMEAEDAATYYCQQWSSNPYTFGGGTKLEIK | 36.9

In the following, a different binder is considered.
For CD73 antibody 6G8 (chimeric) (antibody, V domains shown, Mouse variable regions on human IgG heavy chain constant region and human kappa constant region (chimeric IgG); also called Clone 6G8; 6G8 Chimera) VH: QVTLKESGPGILKPSQTLSLTCSFSGFSLNTSGMGVGWIRQPSGKGLEWLAHIWWDDDKYYNPSLKSQLTISKDTSRNQVFLRIASVDTADTATYYCARRERWAWFAYWGQGTLVTVSA VL: DIVMTQSQKFMSASVGDRVSVTCKASQNVFTNVAWYQQKPGQSPKVLIYSASYRYSGVPDRFTGSGSGTDFTLTINNVQSEDLAEYFCQQYNSYPTFGSGTKLEIK the binder record lists CD73 endocytosis ratio %, 480 minutes as 47.7
